# Test system: SW-620
# Protocol Text: Antiproliferative activity against human SW620 cells after 72 hrs by MTT assay
# Format: functional, cell-based
# Condition Parameters: SW-620, 72 h
Value Type: pIC50
Give only the number. pIC50 is defined as minus log10 of concentration in molar units.

Example results:
{"Compound": "O=C1S/C(=C\\c2c3ccccc3nc3ccccc23)C(=O)N1Cc1ccc(Cl)cc1", "pIC50": 4.70}
{"Compound": "O=C1SC(=Cc2c3ccccc3nc3ccccc23)C(=O)N1Cc1ccc(Br)cc1 (mixture of isomers)", "pIC50": 4.45}
{"Compound": "O=C1SC(=Cc2c3ccccc3nc3ccccc23)C(=O)N1Cc1ccc(F)cc1 (mixture of isomers)", "pIC50": 4.50}
{"Compound": "Cc1ccc(CN2C(=O)S/C(=C\\c3c4ccccc4nc4ccccc34)C2=O)cc1", "pIC50": 4.57}

Okay, now this compound:
In: Would you mind telling me what pIC50 value was observed for COc1cc(NS(C)(=O)=O)ccc1Nc1c2ccccc2nc2ccccc12 [AMSACRINE] ?
Out: 6.52

----------
# Tested on: Hs-578T
# Protocol Text: Antiproliferative activity against human Hs578T cells after 72 hrs by MTT assay
# Type: functional, cell-based
Value Type: IC50

In: Requested field: IC50. Item: O=C1S/C(=C\c2c3ccccc3nc3ccccc23)C(=O)N1Cc1ccc(Cl)cc1
Out: > 58 µM

In: Entry to check: Cc1ccc(CN2C(=O)S/C(=C\c3c4ccccc4nc4ccccc34)C2=O)cc1
Out: > 60.9 µM

----------
# System: V79
# Protocol Text: Cytotoxicity against chinese hamster V79 cells after 72 hrs by MTT assay
# Type: cell-based
# Condition Parameters: Cricetulus griseus, V79, 72 h
Listed compounds paired with reported IC50

The examples below pair each entry with its known result.
{"Compound": "O=C1SC(=Cc2c3ccccc3nc3ccccc23)C(=O)N1Cc1ccc(F)cc1 (mixture of isomers)", "Tested Target": "V79", "Endpoint Result": "32.7 µM"}
{"Compound": "COc1cc(NS(C)(=O)=O)ccc1Nc1c2ccccc2nc2ccccc12 [AMSACRINE]", "Tested Target": "V79", "Endpoint Result": "5.8 µM"}
{"Compound": "O=C1S/C(=C\\c2c3ccccc3nc3ccccc23)C(=O)N1Cc1ccc(Cl)cc1", "Tested Target": "V79", "Endpoint Result": "17.9 µM"}

In: Look up IC50 with V79 for this compound: Cc1ccc(CN2C(=O)S/C(=C\c3c4ccccc4nc4ccccc34)C2=O)cc1
Out: 28.5 µM

In: Now the same for O=C1SC(=Cc2c3ccccc3nc3ccccc23)C(=O)N1Cc1ccc(Br)cc1 (mixture of isomers)
Out: 22.6 µM

----------
# Tested on: Nucleic Acid
# Protocol Text: Binding affinity to calf thymus dsDNA in biosensor assessed as oxidation of exposed bases at 10^-4 M by differential pulse voltametry
# Assay type: nucleic-acid assay
# Condition Parameters: Bos taurus
Calls of active or inactive are those of the source. No cut-off for these calls is given here.
Value Type: Activity

# count of solved cases: 4
{"Compound": "O=C1SC(=Cc2c3ccccc3nc3ccccc23)C(=O)N1Cc1ccc(Br)cc1 (mixture of isomers)", "Tested Target": "Nucleic Acid", "Activity": "Active"}
{"Compound": "CCOC(=O)/C(C#N)=C/c1c2ccccc2nc2ccccc12", "Tested Target": "Nucleic Acid", "Activity": "Active"}
{"Compound": "Cc1ccc(CN2C(=O)S/C(=C\\c3c4ccccc4nc4ccccc34)C2=O)cc1", "Tested Target": "Nucleic Acid", "Activity": "Active"}
{"Compound": "O=C1SC(=Cc2c3ccccc3nc3ccccc23)C(=O)N1Cc1ccc(F)cc1 (mixture of isomers)", "Tested Target": "Nucleic Acid", "Activity": "Active"}

Turning now to a further compound:
In: Look up Activity: O=C1S/C(=C\c2c3ccccc3nc3ccccc23)C(=O)N1Cc1ccc(Cl)cc1
Out: Active
